These measurements were taken from patent US10239843B2.

ASSAY_SYSTEM: Human Full Length PARG (Homo sapiens (Human))
RUN_DESCRIPTION: PARG enzyme assay (TR-FRET)
Type: biochemical
PARTICULARS: read-out: PARG Biochem IC50 Geomean
Would you mind telling me the reported log10 of IC50 of each entry?
In plain terms, each number is the log10 of measured IC50 in nM.

Previously resolved entries follow.
1. CCn1c(=O)n(C)c(=O)c2cc(S(=O)(=O)NC3(C)CC3)ccc21 [Example 9] : 3.61
2. Cc1cc(Cn2c(=O)n(Cc3cnn(C)c3)c(=O)c3cc(S(=O)(=O)NC4(C#N)CC4)ccc32)on1 [Example 359] : 1.63

Below are 8 molecules. Give each one its log10 of IC50.
1. Cc1cc(Cn2c(=O)c3cc(S(=O)(=O)NC4(C)CC4)ccc3n(CC3CCN(C)CC3)c2=O)on1 [Example 371]
2. Cc1cc(Cn2c(=O)c3cc(S(=O)(=O)NC4(C)CC4)ccc3n(CC3CCO3)c2=O)on1 (stereo not shown) [Example 349]
3. Cc1cc(Cn2c(=O)c3cc(S(=O)(=O)NC4(C)CC4)ccc3n(CC3CCCO3)c2=O)on1 (stereo not shown) [Example 267]
4. Cn1cc(Cn2c(=O)c3cc(S(=O)(=O)NC4(C#N)CC4)ccc3n(Cc3ccc(F)cc3)c2=O)cn1 [Example 358]
5. Cc1cc(Cn2c(=O)c3cc(S(=O)(=O)NC4(C#N)CC4)ccc3n(C)c2=O)on1 [Example 229]
6. COC(=O)c1nn(Cc2cc(C)no2)c(=O)c2cc(S(=O)(=O)NC3(C)CC3)ccc12 [Example 301]
7. CSCCn1c(=O)n(Cc2cc(C)no2)c(=O)c2cc(S(=O)(=O)NC3(C)CC3)ccc21 [Example 362]
8. CN1CCCCC1Cn1c(=O)n(Cc2cnn(C)c2)c(=O)c2cc(S(=O)(=O)NC3(C)CC3)ccc21 (stereo not shown) [Example 238]

Response:
1: 2.41; 2: 2.40; 3: 2.37; 4: 1.77; 5: 2.65; 6: 2.92; 7: 2.52; 8: 2.20

Count: 5. Required value per item: log10 of IC50.
1. CN1CCCC(Cn2c(=O)n(Cc3cnn(C)c3)c(=O)c3cc(S(=O)(=O)NC4(C)CC4)ccc32)C1 (stereo not shown) [Example 236]
2. Cn1c(=O)n(Cc2cnn(CC(N)=O)c2)c(=O)c2cc(S(=O)(=O)NC3(C)CC3)ccc21 [Example 203]
3. Cc1cc(Cn2nc(C(=O)O)c3ccc(S(=O)(=O)NC4(C)CC4)cc3c2=O)on1 [Example 302]
4. CC1(NS(=O)(=O)c2ccc3[nH]c(=O)[nH]c(=O)c3c2)CC1 [Example 1]
5. Cn1cc(Cn2c(=O)c3cc(S(=O)(=O)NC4(C)CC4)ccc3n(CC3(C)COC3)c2=O)cn1 [Example 294]

Response:
3.83
2.80
3.83
3.96
1.67

log10 of IC50 measured on CNc1nn(Cc2cc(C)no2)c(=O)c2cc(S(=O)(=O)NC3(C)CC3)ccc12 [Example 244] = 2.82

====

ASSAY_SYSTEM: Human Full Length PARG (Homo sapiens (Human))
RUN_DESCRIPTION: PARG enzyme assay (TR-FRET)
Assay type: biochemical
PARTICULARS: read-out: PARG Biochem IC50 Geomean
ASSAY_READOUT: pIC50
Answers are plain numbers, as −log10 of the molar value.

1. Cc1cc(Cn2c(=O)c3cc(S(=O)(=O)NC4(C)CC4)ccc3n(CC3CC3)c2=O)on1 : 7.26
2. Cn1c(=O)n(Cc2nc3ccccc3[nH]2)c(=O)c2cc(S(=O)(=O)NC3(C)CC3)ccc21 : 5.24
3. Cc1cc(Cn2nc(C3CC3)c3ccc(S(=O)(=O)NC4(C)CC4)cc3c2=O)on1 : 6.46

Below are 5 compounds. Give each one its pIC50.
1. Cn1c(=O)c2cc(S(=O)(=O)NC3(C)CC3)ccc2n(Cc2cncs2)c1=O
2. Cn1c(=O)c2cc(S(=O)(=O)NC3(C)CC3)ccc2n(Cc2ccccc2F)c1=O
3. Cn1cc(Cn2c(=O)c3cc(S(=O)(=O)NC4(C#N)CC4)ccc3n(CC#N)c2=O)cn1
4. Cn1cc(Cn2c(=O)c3cc(S(=O)(=O)NC4(C)CC4)ccc3n(CCN3CCCC3)c2=O)cn1
5. Cc1cc(Cn2c(=O)c3cc(S(=O)(=O)NC4(C)CC4)ccc3n(CCN(C)C)c2=O)on1

Response:
[6.47, 5.84, 6.40, 6.50, 6.33]

====

Can you tell me IC50 for the items I'm about to list?
ASSAY_SYSTEM: UniProt Q86W56
RUN_DESCRIPTION: PARG enzyme assay (TR-FRET)
Type: biochemical
PARTICULARS: read-out: PARG Biochem IC50 Geomean
Give bare numbers, in nM.

1. Cn1cc(Cn2c(=O)c3cc(S(=O)(=O)NC4(C)CC4)ccc3n(CC3CCCCC3)c2=O)cn1 : 177
2. Cn1c(=O)c2cc(S(=O)(=O)NC3(C)CC3)ccc2n(Cc2ccc(C#N)c(F)c2)c1=O : 1280
3. CCn1c(=O)c2cc(S(=O)(=O)NC3(C)CC3)ccc2n(CC2CCCCC2)c1=O : 3100
4. Cc1ncoc1Cn1c(=O)c2cc(S(=O)(=O)NC3(C)CC3)ccc2n(C)c1=O : 1840
5. Cc1cc(Cn2cc(C)c3ccc(S(=O)(=O)NC4(C)CC4)cc3c2=O)on1 : 1280

Kindly give each listed record's IC50.
1. Cc1cc(Cn2c(=O)c3cc(S(=O)(=O)NC4(C)CC4)ccc3n(CC3CC(F)(F)C3)c2=O)on1
2. COCCn1c(=O)n(Cc2cnn(C)c2)c(=O)c2cc(S(=O)(=O)NC3(C)CC3)ccc21
3. Cn1c(=O)c2cc(S(=O)(=O)NC3(C)CC3)ccc2n(C)c1=O
4. Cc1ncc(Cn2c(=O)c3cc(S(=O)(=O)NC4(C)CC4)ccc3n(CC3CC3)c2=O)s1

Response:
[353, 128, 4740, 19]

====

ASSAY_SYSTEM: Human Full Length PARG (Homo sapiens (Human), UniProt Q86W56)
Sequence (Q86W56 whole entry): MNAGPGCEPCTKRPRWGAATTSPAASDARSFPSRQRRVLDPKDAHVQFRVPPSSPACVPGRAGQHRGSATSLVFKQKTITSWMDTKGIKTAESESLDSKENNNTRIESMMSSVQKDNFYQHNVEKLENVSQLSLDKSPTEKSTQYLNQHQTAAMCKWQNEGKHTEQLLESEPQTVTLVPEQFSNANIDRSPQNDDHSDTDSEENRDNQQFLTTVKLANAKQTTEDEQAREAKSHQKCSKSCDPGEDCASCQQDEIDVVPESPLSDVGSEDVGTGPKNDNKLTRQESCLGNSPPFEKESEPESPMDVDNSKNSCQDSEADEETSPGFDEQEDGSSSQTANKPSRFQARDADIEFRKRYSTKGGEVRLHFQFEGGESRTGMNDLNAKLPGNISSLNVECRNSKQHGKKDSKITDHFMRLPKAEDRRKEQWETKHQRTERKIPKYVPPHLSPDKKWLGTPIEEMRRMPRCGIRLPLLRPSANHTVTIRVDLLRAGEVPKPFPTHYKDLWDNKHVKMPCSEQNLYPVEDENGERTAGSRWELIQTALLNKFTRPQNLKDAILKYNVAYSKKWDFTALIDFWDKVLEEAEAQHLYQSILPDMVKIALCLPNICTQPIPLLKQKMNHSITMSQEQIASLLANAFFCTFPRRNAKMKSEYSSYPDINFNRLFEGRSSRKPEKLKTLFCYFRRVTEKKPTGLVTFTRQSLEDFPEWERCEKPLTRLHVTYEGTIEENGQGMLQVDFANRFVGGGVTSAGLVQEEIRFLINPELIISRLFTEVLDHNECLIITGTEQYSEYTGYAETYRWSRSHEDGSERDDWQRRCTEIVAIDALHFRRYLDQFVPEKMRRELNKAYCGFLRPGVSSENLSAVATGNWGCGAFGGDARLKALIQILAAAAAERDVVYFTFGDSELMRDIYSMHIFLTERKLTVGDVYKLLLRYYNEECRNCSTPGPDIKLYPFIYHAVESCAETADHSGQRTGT
RUN_DESCRIPTION: PARG enzyme assay (TR-FRET)
Format: biochemical
PARTICULARS: read-out: PARG Biochem IC50
Rule: IC50 below 200 nM gives condition met, anything at or above gives condition not met.

1. CC[C@H](C)Cn1c(=O)n(Cc2cc(C)no2)c(=O)c2cc(S(=O)(=O)NC3(C)CC3)ccc21 : condition not met
2. Cn1cc(Cn2c(=O)c3cc(S(=O)(=O)NC4(CF)CC4)ccc3n(CC#N)c2=O)cn1 : condition not met
3. Cn1cc(Cn2c(=O)c3cc(S(=O)(=O)NC4(CF)CC4)ccc3n(CC3CCCC3)c2=O)cn1 : condition met

Request: Consider Cc1noc(C)c1Cn1c(=O)n(Cc2cnn(C)c2)c(=O)c2cc(S(=O)(=O)NC3(CF)CC3)ccc21 . Does its IC50 lie strictly below 200 nM?
Response: condition met

Request: Lab log: compare recorded IC50 with 200 nM; is it strictly lower for Cn1cc(Cn2c(=O)[nH]c3ccc(S(=O)(=O)NC4(C=O)CC4)cc3c2=O)cn1 ?
Response: condition not met

Request: Is 200 nM strictly greater than the compound's reported IC50? compound: Cc1cc(Cn2c(=O)c3cc(S(=O)(=O)NC4(C)CC4)ccc3n(CC3CC(=O)C3)c2=O)on1
Response: condition not met

Request: Please indicate whether the reported IC50 of Cn1c(=O)n(CCc2ccccn2)c(=O)c2cc(S(=O)(=O)NC3(C)CC3)ccc21 is strictly below 200 nM.
Response: condition not met

Request: Lab log: compare recorded IC50 with 200 nM; is it strictly lower for Cc1ncc(Cn2c(=O)n(Cc3cnn(C)c3)c(=O)c3cc(S(=O)(=O)NC4(CF)CC4)ccc32)o1 ?
Response: condition met

====

System: PARG in HeLa cell line
RUN_DESCRIPTION: PARG cell assay (PAR chain immunofluorescence after MMS)
Format: cell-based
PARTICULARS: Homo sapiens; HeLa cells, MMS 50 μg/mL; read-out: PARG Cell IC50 Geomean
ASSAY_READOUT: pIC50
Answers are plain numbers, as −log10 of the molar value.

Example cases with answers are listed next.
1) Cc1cc(Cn2c(=O)c3cc(S(=O)(=O)NC4(C)CC4)ccc3n(Cc3cnn(C)c3)c2=O)on1 : 6.79
2) C#CCn1c(=O)n(Cc2c(C)noc2C)c(=O)c2cc(S(=O)(=O)NC3(C)CC3)ccc21 : 6.82
3) CCn1c(=O)n(Cc2cnn(C)c2)c(=O)c2cc(S(=O)(=O)NC3(C#N)CC3)ccc21 : 6.04
4) Cc1cc(Cn2c(=O)n(C)c(=O)c3cc(S(=O)(=O)NC4(C)CC4)c(F)cc32)n(C)n1 : 6.10
5) CC1CC1Cn1c(=O)n(C)c(=O)c2cc(S(=O)(=O)NC3(C)CC3)ccc21 (centres unmarked) : 6.39
6) Cc1cc(Cn2c(=O)c3cc(S(=O)(=O)NC4(C)CC4)ccc3n(CC(F)(F)F)c2=O)on1 : 6.49
7) C#CCn1c(=O)n(Cc2cnn(C)c2)c(=O)c2cc(S(=O)(=O)NC3(C)CC3)ccc21 : 6.90

Next, consider the following compound.
// field: pIC50; key: CCn1c(=O)n(Cc2cc(C)no2)c(=O)c2cc(S(=O)(=O)NC3(C)CC3)ccc21 ; value = 6.95
